- experimental-protocol: Inhibitor plasma concentration was measured in dogs on 10 mg/kg oral dosing after 1 hr administration; uM
- Assay type: ADME, organism-based, Canis lupus familiaris
- Design: dose 10 mg/kg, route oral
- condition-summary: dog
property-name: concentration at 1 h (nM)

Before answering, review these 5 worked examples.
{"smiles-representation": "CN1CCN=C1c1cccc(Oc2nc(Oc3cc(C(=N)N)ccc3O)c(F)c(O[C@H]3CN[C@H](C(=O)O)C3)c2F)c1", "concentration at 1 h, nM": 3200}
{"smiles-representation": "CCOC(=O)[C@@H]1C[C@@H](Oc2c(F)c(Oc3cccc(C(=O)N(C)C)c3)nc(Oc3cc(C(=N)N)ccc3O)c2F)CN1", "concentration at 1 h, nM": 300}
{"smiles-representation": "CN1CCN=C1c1cccc(Oc2nc(Oc3cc(C(=N)N)ccc3O)c(F)c(N(C)CC(=O)O)c2F)c1", "concentration at 1 h, nM": 3000}
{"smiles-representation": "CN(C)C(=O)c1cccc(Oc2nc(Oc3cc(C(=N)N)ccc3O)c(F)c(OC3CCN(CC(=O)O)CC3)c2F)c1", "concentration at 1 h, nM": 300}
{"smiles-representation": "CCOC(=O)CN1CCC(Oc2c(F)c(Oc3cccc(C4=NCCN4C)c3)nc(Oc3cc(C(=N)N)ccc3O)c2F)CC1", "concentration at 1 h, nM": 300}

(A) CN(C)C(=O)c1cccc(Oc2nc(Oc3cc(C(=N)N)ccc3O)c(F)c(N(C)CC(=O)O)c2F)c1
(B) CCOC(=O)[C@@H]1C[C@@H](Oc2c(F)c(Oc3cccc(C4=NCCN4C)c3)nc(Oc3cc(C(=N)N)ccc3O)c2F)CN1
(C) CCOC(=O)CN(C)c1c(F)c(Oc2cccc(C3=NCCN3C)c2)nc(Oc2cc(C(=N)N)ccc2O)c1F
(D) CN1CCN=C1c1cccc(Oc2nc(Oc3cc(C(=N)N)ccc3O)c(F)c(OC3CCN(CC(=O)O)CC3)c2F)c1
Task: List from greatest to least concentration at 1 h. # answer = labels listed in requested order
Output: D, B, A, C
(D: 5500 nM, B: 3500 nM, A: 300 nM, C: 200 nM)
